target-desc: UniProt P13569
Sequence (P13569 whole entry): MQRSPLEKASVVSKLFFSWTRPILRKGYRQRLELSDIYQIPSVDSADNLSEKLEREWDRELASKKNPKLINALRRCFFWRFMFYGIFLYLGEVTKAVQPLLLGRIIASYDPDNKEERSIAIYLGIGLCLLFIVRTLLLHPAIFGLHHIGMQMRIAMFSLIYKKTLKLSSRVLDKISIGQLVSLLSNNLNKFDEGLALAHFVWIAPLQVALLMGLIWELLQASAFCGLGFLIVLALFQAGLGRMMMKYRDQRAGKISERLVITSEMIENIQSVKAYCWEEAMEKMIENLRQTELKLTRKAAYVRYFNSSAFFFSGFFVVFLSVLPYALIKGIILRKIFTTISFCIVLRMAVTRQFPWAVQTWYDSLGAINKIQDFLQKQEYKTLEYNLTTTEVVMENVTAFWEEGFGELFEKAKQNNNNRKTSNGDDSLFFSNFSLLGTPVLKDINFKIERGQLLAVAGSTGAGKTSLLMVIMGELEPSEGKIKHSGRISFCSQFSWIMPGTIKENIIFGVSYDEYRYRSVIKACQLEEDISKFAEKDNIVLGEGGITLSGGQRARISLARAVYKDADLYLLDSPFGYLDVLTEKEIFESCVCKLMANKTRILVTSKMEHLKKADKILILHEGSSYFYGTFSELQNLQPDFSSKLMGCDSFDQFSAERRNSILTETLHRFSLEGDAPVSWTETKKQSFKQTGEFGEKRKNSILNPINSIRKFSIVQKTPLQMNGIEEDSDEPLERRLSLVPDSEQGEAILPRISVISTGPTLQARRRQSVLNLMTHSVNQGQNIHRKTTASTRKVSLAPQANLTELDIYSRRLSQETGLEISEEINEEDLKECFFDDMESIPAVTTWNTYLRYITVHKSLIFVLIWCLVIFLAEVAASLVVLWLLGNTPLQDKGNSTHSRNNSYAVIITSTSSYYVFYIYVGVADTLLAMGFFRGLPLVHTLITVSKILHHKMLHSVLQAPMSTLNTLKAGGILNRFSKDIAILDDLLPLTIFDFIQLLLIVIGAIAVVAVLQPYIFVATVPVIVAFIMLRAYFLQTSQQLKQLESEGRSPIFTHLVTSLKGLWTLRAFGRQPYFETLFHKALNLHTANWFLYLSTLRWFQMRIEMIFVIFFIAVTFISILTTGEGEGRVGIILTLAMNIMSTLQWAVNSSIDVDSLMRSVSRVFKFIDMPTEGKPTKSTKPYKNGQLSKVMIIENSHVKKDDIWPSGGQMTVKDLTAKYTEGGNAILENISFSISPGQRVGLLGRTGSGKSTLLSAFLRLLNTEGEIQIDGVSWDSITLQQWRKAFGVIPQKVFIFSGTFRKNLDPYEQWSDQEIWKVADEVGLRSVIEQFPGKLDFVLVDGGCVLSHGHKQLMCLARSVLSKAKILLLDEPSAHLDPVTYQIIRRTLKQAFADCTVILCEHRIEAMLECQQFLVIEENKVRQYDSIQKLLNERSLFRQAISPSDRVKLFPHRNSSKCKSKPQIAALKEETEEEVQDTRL
method-description: Inhibition of CFTR (unknown origin) at 10 uM relative to control
Format: toxicity
measurement-label: inhibition at 10 µM

## Input # query: inhibition at 10 µM | item CCn1c(CNC(=O)c2nc(Cl)cnc2N)[n+](CC)c2ccc(OCC(=O)NCCOCP(C)(C)=O)cc21 | system: UniProt P13569
## Output < 50%
